- TEST SUMMARY: Tolerability in Balb/c mice, plasma chemistry markers (Example 14)
- Format: in vivo
- CONDITION PARAMETERS: male Balb/c mice, 50 mg/kg s.c. twice a week for four weeks (8 treatments), day 27
Strand notation (5' to 3'): a small letter for the sugar, then the base; units joined by * are phosphorothioate-linked, units joined directly phosphodiester-linked; [ ] holds rarer units or linkages, { } end groups; capitals alone tell only the bases. k = constrained ethyl (cEt); [5mC] = 5-methylcytosine; d = 2'-deoxy (DNA)
VALUE KIND: ALT (U/L)

INSERT INTO results (substance, readout_unit, measured_result) VALUES
  ('958534 (kT*kT*k[5mC]*dA*dG*d[5mC]*dA*dT*dA*dG*dA*dA*dG*kT*kA*kG; antisense) [compound 958534]', 'U/L', 1962),
  ('958589 (kG*kT*kA*dA*dA*dG*dG*dA*dA*dG*dA*dT*d[5mC]*kT*k[5mC]*k[5mC]; antisense) [compound 958589]', 'U/L', 35),
  ('958497 (kA*kT*kA*dT*dG*dG*dA*dA*dA*dT*dT*dG*dT*k[5mC]*kT*k[5mC]) [compound 958497]', 'U/L', 46);

---

- Tested on: Yap1 mRNA
- TEST SUMMARY: Dose-dependent inhibition of human Yap1 in A-431 cells (Example 7, 10,000 cells per well, RTS36584)
- Format: cell-based
- CONDITION PARAMETERS: Table 60, 15.6 nM, free uptake, A-431 cells 10,000 cells per well, 48 hours
Strand notation (5' to 3'): a small letter for the sugar, then the base; units joined by * are phosphorothioate-linked, units joined directly phosphodiester-linked; [ ] holds rarer units or linkages, { } end groups; capitals alone tell only the bases. k = constrained ethyl (cEt); [5mC] = 5-methylcytosine; d = 2'-deoxy (DNA)
Yap1 mRNA, % UTC values for the substances below.
VALUE KIND: Yap1 mRNA, % UTC

INSERT INTO measurements (substance, value_kind, measured_result) VALUES
  ('958568 (kT*kA*kT*dG*dA*dG*dT*dG*dA*dT*d[5mC]*dA*dA*k[5mC]*k[5mC]*kT; antisense) [compound 958568]', 'Yap1 mRNA, % UTC', '88 % UTC'),
  ('958543 (kA*k[5mC]*k[5mC]*dT*dT*dA*dT*dA*dG*dT*dA*dT*dT*k[5mC]*kT*kA; antisense) [compound 958543]', 'Yap1 mRNA, % UTC', '84 % UTC'),
  ('958538 (kA*kT*k[5mC]*d[5mC]*dA*dG*dG*dG*dT*d[5mC]*dA*dA*dT*kT*kT*kT; antisense) [compound 958538]', 'Yap1 mRNA, % UTC', '101 % UTC'),
  ('958554 (kA*kA*k[5mC]*d[5mC]*dA*dT*dT*dA*dT*dT*dA*d[5mC]*dT*k[5mC]*k[5mC]*kT; antisense) [compound 958554]', 'Yap1 mRNA, % UTC', '70 % UTC'),
  ('958558 (kT*kT*k[5mC]*dA*d[5mC]*dA*dA*d[5mC]*d[5mC]*dA*dA*d[5mC]*dT*kA*kT*kT; antisense) [compound 958558]', 'Yap1 mRNA, % UTC', '84 % UTC'),
  ('715483 (k[5mC]*kT*k[5mC]*dT*dT*dT*dG*dG*dA*dA*dA*d[5mC]*d[5mC]*kA*kT*kT) [compound 715483]', 'Yap1 mRNA, % UTC', '79 % UTC');
